# System: Klebsiella 8085
# protocol_summary: Minimum inhibitory concentration (MIC) in the plate test
# Type: cell-based
# condition_set: pH 7.4
We begin with a simple list: items and their reported MIC.
reported_endpoint: MIC (µg/mL)

chemical_structure=CCCNc1ncnc2c1[n+]([O-])c1ccccc1[n+]2[O-] reported_endpoint=MIC number=100
chemical_structure=[O-][n+]1c2ccccc2[n+]([O-])c2c(NCCO)ncnc21 reported_endpoint=MIC number=150
chemical_structure=CCNc1ncnc2c1[n+]([O-])c1ccccc1[n+]2[O-] reported_endpoint=MIC number=10
chemical_structure=CNc1ncnc2c1[n+]([O-])c1ccccc1[n+]2[O-] reported_endpoint=MIC number=5
